Reference source: ChEMBL document CHEMBL1201862

- Tested on: HT-29
- Measurement Description: NCI tumour cell line growth inhibition, 48 h
Activity calls are given as the source filed them. Cut-off read from the data, not from the text of the source: active = GI50 up to about 1.1 µM and inactive = higher.
Measured Parameter: GI50

Some compounds with known GI50 results, for comparison:
Compound: CC(=O)/C(=C\c1ccccc1O)C(=O)Nc1ccccc1C
Measured Parameter: GI50
Observed Measurement: 16.9 µM (inactive)
//
Compound: CC(=O)OC12c3ccccc3C(c3ccccc31)C1C(=O)N(c3ccccc3O)C(=O)C12 (centres undefined)
Measured Parameter: GI50
Observed Measurement: 70.5 µM (inactive)
//
Compound: CC(=O)OC(/C=C/c1ccccc1)=C(OC(C)C)/C1=C(\c2ccccc2)SCCCSC1=O
Measured Parameter: GI50
Observed Measurement: > 100 µM (inactive)

We now examine a further compound.
Quick note, GI50 for `COC(=O)c1c(OC(C)=O)ccc2c1c1c(OC(C)=O)c3ccccc3c(OC(C)=O)c1n2C` landed at 38.4 µM (inactive)

###

- Test system: OVCAR-8
- Measurement Description: NCI tumour cell line growth inhibition, 48 h
Active and inactive are the calls of the source. No stated cut-off is given here; in the data, active = GI50 up to about 1.1 µM and inactive = higher.
Entry note: the call must match one of yes (1) for active, no (0) for inactive

// below: answered molecules
Molecule: Cc1cc2oc(C)c(S(=O)(=O)NC(=O)Nc3ccc(Cl)cc3)c(=O)c2c(=O)o1
Discrete Label: no (0)
//
Molecule: CC(=O)OCC1OC(n2c(S)nc(-c3ccccc3)c(C#N)c2=O)C(OC(C)=O)C(OC(C)=O)C1OC(C)=O (stereo not given)
Discrete Label: no (0)
//
Molecule: Cc1cc(NC(=O)NC(=O)c2ccccc2[N+](=O)[O-])ccc1Oc1ncc(Cl)cn1
Discrete Label: yes (1)
//
Molecule: O=S1(=O)CCCS(=O)(=O)C(c2ccccc2)=C1c1ccccc1
Discrete Label: no (0)
//
Molecule: N[C@H](C(=O)O)[C@@H]1CC(Br)=NO1
Discrete Label: no (0)

What did this assay record as the result for CCOC(=O)CCC(NC(=O)c1ccc(Nc2nc3ccccc3nc2-c2cccs2)cc1)C(=O)OCC (stereo not given) ?
no (0)

What did this assay record as the result for `O=c1oc2cc(/N=C/c3ccc4c(c3)OCO4)ccc2c2ccccc12` ?
no (0)

What did this assay record as the result for O=C1C(C(c2ccccc2)N2CCOCC2)=C(O)C(c2ccccc2)N1c1ccccc1 (stereo not given) ?
no (0)

What did this assay record as the result for `COc1c2c(c3c(c1OC)c(=O)c1ccccc1n3C)OCO2` ?
no (0)

What did this assay record as the result for CCOC(=O)C1(C/C=C/CBr)CCc2ccccc2C1=O (stereo not given) ?
no (0)

###

- Test system: SK-MEL-2
- Measurement Description: NCI tumour cell line growth inhibition, 48 h
Calls of active or inactive are those of the source. Rule as the data show it: active = GI50 up to about 1.1 µM and inactive = higher.
Entry note: the call must match one of yes (1) for active, no (0) for inactive

What did this assay record as the result for `Nc1ncnc2nc(N3CCN(CCO)CC3)[nH]c12` ?
no (0)

What did this assay record as the result for CC[C@]1(Cc2ccc(OC)c(OC)c2)C=[N+]([O-])O[C@H](OC2CCCC2(c2ccccc2)c2ccccc2)[C@@H]1OC(C)=O (stereo partly drawn) ?
no (0)

What did this assay record as the result for CN1CC[C@]2(C)c3c(O)cccc3CC3CCCC1C32C (stereo partly drawn) ?
no (0)

What did this assay record as the result for `Oc1c(Br)ccc2cccnc12` ?
no (0)

What did this assay record as the result for `O=c1oc2cc(/N=C/c3ccc4c(c3)OCO4)ccc2c2ccccc12` ?
no (0)

What did this assay record as the result for COc1ccc(N2C(=O)/C(=C\c3cc(OC)c(OC)c(OC)c3)S(=O)(=O)C2c2ccccc2)cc1 (stereo not drawn) ?
no (0)

What did this assay record as the result for `CN(C)c1ccc(/C=C(\NC(=O)c2ccccc2)C(=O)Nc2cccc(C(=O)NCCCO)c2)cc1` ?
no (0)
